tested on: Plasmodium falciparum; experiment: Screen against P. falciparum Asexual Blood Stage (ABS), at 5uM; assay type: functional, Dd2; conditions: tested at 5 uM
The whole screen tested about 65,000 compounds, of which about 2,100 (3.2%) showed an effect of 50% or more. The median lay at about -52%. This excerpt belongs to a sample that is enriched for strong results.
// map INHIBITION onto a label; ranges range A: < -20%; range B: ≥ -20% and < 20%; range C: ≥ 20%

Study these solved cases before continuing.
c1ccc(CCN2C[C@@H]3OCCN(c4ncccn4)[C@@H]3C2)cc1	range A
Oc1cccc(CN2C[C@@H]3CC[C@H]2CN(Cc2ccncc2)C3)c1	range A
CC(C)c1nc(CNCC2CCCN2c2cccnn2)cs1 (stereo not given)	range C
O=C(CC1[C@H]2CN(Cc3ccncc3)C[C@@H]12)N1CCCC1 (stereo not given in full)	range A
Cc1ccc([C@]2(O)CC[C@H]3CN(Cc4ccccc4F)C[C@H]32)nc1	range C
CC(C)c1nc(CC(=O)N2CCN(C)CC2c2ccccc2)cs1 (stereo not given)	range B
Cc1ccc(CNCc2cccc3cn[nH]c23)c(OC2CCOC2)c1 (stereo not given)	range C
O=C1NC[C@H]2CN(Cc3ccccn3)CCN12	range B
OC[C@H]1CN2CCN(c3ccccn3)C[C@@H]2[C@@H]1c1ccccc1	range B

Next, consider the following compound.
Enquiry: Please let me know in which category the item c1cnnc(N2CCCC2CNCc2nc(-c3cccs3)no2)c1 (stereo not given) belongs.
Return: range C
